Would you kindly list z-score of subpopulation abundance for each of these compounds?
# System: Saccharomyces cerevisiae BY4741 SeMeCo community
# Test details: z-score of subpopulation abundance vs DMSO median, subpopulation auxotrophic for HLUM; higher = larger share of this subpopulation than in DMSO controls
# Condition notes: 10 µM; 24 h; SM minimal medium; subpopulation (auxotrophy): HLUM
Where a name gives a salt, the structure may show the parent alone.
Answer with a number only.

## Task Give z-score of subpopulation abundance for the following compound: Cn1cc(C(=O)[C@@H]2CCc3[nH]cnc3C2)c2ccccc21 [Ramosetron Hydrochloride]
## Result 0.88

## Task Given the compound COc1ccc2c3c1O[C@H]1C[C@@H](O)C=C[C@@]31CCN(C)C2 , write its reported z-score of subpopulation abundance.
## Result -0.98

## Task Return z-score of subpopulation abundance (reported value) for this compound: C1CCN2C[C@@H]3C[C@@H](CN4CCCC[C@@H]34)[C@H]2C1 [(-)-Sparteine Sulfate]
## Result -0.92

## Task Assign z-score of subpopulation abundance to the following record: CCN(CC)CCOC(=O)c1ccc(N)cc1 [Procaine]
## Result -0.71

## Task Tell me z-score of subpopulation abundance reported for C[C@@H](CN1CC(=O)NC(=O)C1)N1CC(=O)NC(=O)C1 [Dexrazoxane HCl (ICRF-187, ADR-529)]
## Result -0.79

## Task Read the entry O=C(Nc1c(Cl)cncc1Cl)c1ccc(OC(F)F)c(OCC2CC2)c1 and write its reported z-score of subpopulation abundance.
## Result -0.84

## Task Give the reported z-score of subpopulation abundance for this compound. Cc1ccc(S(=O)(=O)NC(=O)NN2CC3CCCC3C2)cc1 (centres undefined) [Gliclazide]
## Result -0.17

## Task Kindly indicate its recorded z-score of subpopulation abundance. Item: Cc1cc(C)nc(O)n1.O=C(Nc1ccc([N+](=O)[O-])cc1)Nc1ccc([N+](=O)[O-])cc1
## Result -0.56

## Task Specify z-score of subpopulation abundance for COc1ccc(C(=O)NCc2ccc(OCCN(C)C)cc2)cc1OC [Itopride hydrochloride] and stop.
## Result -0.16

* * *

# Test system: Saccharomyces cerevisiae BY4741 SeMeCo community
# Test details: z-score of subpopulation abundance vs DMSO median, subpopulation auxotrophic for H; higher = larger share of this subpopulation than in DMSO controls
# Condition notes: 10 µM; 24 h; SM minimal medium; subpopulation (auxotrophy): H
Where a name gives a salt, the structure may show the parent alone.
Assay endpoint: z-score of subpopulation abundance
I'd appreciate a reply containing only the number, no unit.

## Task Lab note: Saccharomyces cerevisiae BY4741 SeMeCo community assay, enter z-score of subpopulation abundance for C[C@@H]1C/C=C/C=C/C=C/C=C/[C@H](O[C@@H]2O[C@H](C)[C@@H](O)[C@H](N)[C@@H]2O)C[C@@H]2O[C@](O)(C[C@@H](O)C[C@H]3O[C@@H]3/C=C/C(=O)O1)C[C@H](O)[C@H]2C(=O)O here
## Result 12.5

## Task // fetch z-score of subpopulation abundance for Cc1cc(-c2ccc(/N=N/c3ccc4c(S(=O)(=O)O)cc(S(=O)(=O)O)c(N)c4c3O)c(C)c2)ccc1/N=N/c1ccc2c(S(=O)(=O)O)cc(S(=O)(=O)O)c(N)c2c1O ; system: Saccharomyces cerevisiae BY4741 SeMeCo community
## Result 4.9

## Task For Saccharomyces cerevisiae BY4741 SeMeCo community, give z-score of subpopulation abundance of the listed compound: CN1C2CCCC1CC(NC(=O)c1nn(C)c3ccccc13)C2 (stereo not drawn) [Granisetron HCl]
## Result 1.08
